Each recorded value in this set is attributed to patent US7605272B2.

Catalogue of inhibition at 10 µM readings, one per entry.
Target: IGF-1R (Homo sapiens, UniProt P08069)
Construct: purchased Upstate Co. 14-465
Sequence (P08069 959-1367 limits assumed): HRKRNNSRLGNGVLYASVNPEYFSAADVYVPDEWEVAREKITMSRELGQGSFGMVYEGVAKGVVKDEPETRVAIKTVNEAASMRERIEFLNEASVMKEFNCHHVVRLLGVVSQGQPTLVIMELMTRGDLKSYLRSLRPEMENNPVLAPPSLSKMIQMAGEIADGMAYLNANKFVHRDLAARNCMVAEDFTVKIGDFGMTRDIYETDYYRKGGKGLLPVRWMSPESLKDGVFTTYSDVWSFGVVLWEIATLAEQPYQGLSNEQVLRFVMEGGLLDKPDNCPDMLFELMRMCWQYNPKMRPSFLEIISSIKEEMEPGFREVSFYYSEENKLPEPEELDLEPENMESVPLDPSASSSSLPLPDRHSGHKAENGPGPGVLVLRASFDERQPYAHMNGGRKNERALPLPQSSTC
Assay: IGF-1R inhibitory activity (kinase reaction, time-resolved fluoroimmunoassay)
Assay type: biochemical
Conditions: IGF-1R active recombinant enzyme, test compound 10 μmol/L
State the answer as a number, implicitly in %.

// worked examples, inhibition at 10 µM included
>  <COMPOUND>
Cc1ccsc1C(=O)Nc1cc(C(=O)NCCN2CCOCC2)ccc1/C=C/c1n[nH]c2ccccc12

>  <ENDPOINT_NAME>
inhibition at 10 µM

>  <REPORTED>
99.2

$$$$
>  <COMPOUND>
C(=C\c1n[nH]c2ccccc12)/c1ccccc1N1CCOCC1

>  <ENDPOINT_NAME>
inhibition at 10 µM

>  <REPORTED>
94.3

$$$$
>  <COMPOUND>
Cc1cc(CO)c(C)n1-c1ccccc1/C=C/c1n[nH]c2ccccc12

>  <ENDPOINT_NAME>
inhibition at 10 µM

>  <REPORTED>
102

$$$$
>  <COMPOUND>
Cc1ccsc1C(=O)Nc1cc(C(=O)N(C)C2CCN(C)CC2)ccc1/C=C/c1n[nH]c2ccccc12

>  <ENDPOINT_NAME>
inhibition at 10 µM

>  <REPORTED>
97.9

$$$$
>  <COMPOUND>
NC(=S)Nc1ccccc1/C=C/c1n[nH]c2ccccc12

>  <ENDPOINT_NAME>
inhibition at 10 µM

>  <REPORTED>
95.9

$$$$
>  <COMPOUND>
Cc1ccsc1C(=O)Nc1cc(N2CCN(CCO)CC2)ccc1/C=C/c1n[nH]c2ccccc12

>  <ENDPOINT_NAME>
inhibition at 10 µM

>  <REPORTED>
104

$$$$

Attention now shifts to the item below.
Recorded inhibition at 10 µM for COC1CCN(C(=O)c2ccc(/C=C/c3n[nH]c4ccccc34)c(N3Cc4c(N)cccc4C3=O)c2)CC1 , please?
97.9

====

Entries and their inhibition at 1 µM
Test system: NCI-H929
Experiment: Cytostatic activity on human multiple myeloma cell line NCI-H929 (WST-1)
Assay type: cell-based
Conditions: Homo sapiens, NCI-H929, 72 h, NCI-H929 cells, test compound 1 μmol/L, WST-1; read-out: cytostatic rate (%) H929 (1 μmol/L)
The reply should contain only the number, in %.

Consider the following illustrative entries.
>  <SMILES_CODE>
COCCCN1CCN(C(=O)c2ccc(/C=C/c3n[nH]c4ccccc34)c(N3C(=O)c4cccc(N)c4C3=O)c2)CC1

>  <ASSAYED_TARGET>
NCI-H929

>  <REPORTED>
115

$$$$
>  <SMILES_CODE>
COc1c(OCCCN2CCC(O)CC2)ccc(/C=C/c2n[nH]c3ccccc23)c1NC(=O)c1sccc1C

>  <ASSAYED_TARGET>
NCI-H929

>  <REPORTED>
133

$$$$
>  <SMILES_CODE>
Cc1ccsc1C(=O)Nc1cc(CN2CCNC[C@H]2C)ccc1/C=C/c1n[nH]c2ccccc12

>  <ASSAYED_TARGET>
NCI-H929

>  <REPORTED>
116

$$$$
>  <SMILES_CODE>
Cc1ccsc1C(=O)Nc1cc(CN2CCC(CCO)CC2)ccc1/C=C/c1n[nH]c2ccccc12

>  <ASSAYED_TARGET>
NCI-H929

>  <REPORTED>
117

$$$$
>  <SMILES_CODE>
Cc1ccsc1C(=O)Nc1cc(CN2CCC(CCC(C)(C)O)CC2)ccc1/C=C/c1n[nH]c2ccccc12

>  <ASSAYED_TARGET>
NCI-H929

>  <REPORTED>
122

$$$$
>  <SMILES_CODE>
COc1c(OCC(=O)N2CCN(C)CC2)ccc(/C=C/c2n[nH]c3ccccc23)c1NC(=O)c1sccc1C

>  <ASSAYED_TARGET>
NCI-H929

>  <REPORTED>
118

$$$$

Next, consider the following compound.
Looking for the measured inhibition at 1 µM of COc1c(OCCCN2CCNC(=O)C2)ccc(/C=C/c2n[nH]c3ccccc23)c1NC(=O)c1sccc1C , can you help?
120
